Data origin, for the record: PubChem BioAssay

# assay remarks: reversal of MRP1-mediated doxorubicin resistance, pilot screen, H69AR cells, doxorubicin co-treatment (AID 601)
# applied conditions: H69AR cells, CellTiter-Glo, 72 h; compound alone cytotoxicity; at 10 µM
Simple rule here: viability less than 90% is 1, otherwise 0.

Input: Quick check: does CC(=O)Nc1cccc(NC(=O)CSc2nnnn2C(C)C)c1 have viability under 90%?
Output: 0

Input: Quick check: does CC(C)(C#N)Nn1cnnc1 have viability under 90%?
Output: 1

Input: Quick check: does CCn1c(=N)n(CC(=O)C23CC4CC(CC(C4)C2)C3)c2ccccc21 have viability under 90%?
Output: 1

Input: Quick check: does O=C(NCc1cccnc1)c1ccc(Cl)c(Cl)c1 have viability under 90%?
Output: 0

Turning now to a further record.
Input: Quick check: does COc1cc(C(=O)OCc2cc3ccccc3[nH]c2=O)cc(OC)c1OC have viability under 90%?
Output: 1

----------
# assay remarks: HUVEC growth inhibition – cell-based, human, primary screen (AID 575);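 also: 100% = median of untreated cell wells with 0.1% DMSO on each plate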
# applied conditions: HUVEC proliferation, CellTiter-Glo luminescence, 72 h; at 10 µM; stronger effect = lower value
observation type: viability (%)
Numeric answer only, unit % assumed.

Example cases with answers are listed next.
Input: Could you tell me which viability is on file for Cc1ccccc1NC(=O)CN1CCC(NC(=O)Nc2ccccc2)CC1 ?
Output: 104

Input: Could you tell me which viability is on file for Cc1cc(C)c2c(n1)nn1c(N3CCN(c4ccccc4C)CC3)cc(C)nc21 ?
Output: 92.4

Input: Could you tell me which viability is on file for COc1ccc(NC(=O)CSc2nc(C)cc(C(F)(F)F)n2)cc1 ?
Output: 103

Input: Could you tell me which viability is on file for Cc1ccc(NC(=O)CSc2nnc(-c3ccccn3)n2C)cc1 ?
Output: 115

Next:
Input: Could you tell me which viability is on file for Cc1ccc(S(=O)(=O)Cn2nnnc2CN(Cc2ccco2)Cc2cccs2)cc1 ?
Output: 104

----------
# assay remarks: growth inhibitors of H69AR lung tumor, primary screen, human, duplicate replicates (AID 580);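 also: 100% = mean luminescence of untreated wells and 0% = no signal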
# applied conditions: H69AR lung tumor cells viability, ATP luminescence, 72 h; at 10 µM; stronger effect = lower value
observation type: viability (%)
Numeric answer only, unit % assumed.

Example cases with answers are listed next.
Input: Could you tell me which viability is on file for CCOC(=O)N1CCN(Cc2ccccc2F)CC1 ?
Output: 85

Input: Could you tell me which viability is on file for O=C(O)CCn1[nH]c(=O)ccc1=O ?
Output: 97.3

Input: Could you tell me which viability is on file for CCC(=O)Oc1ccc(C(CC)C(CC)c2ccc(OC(=O)CC)cc2)cc1 (configuration not stated) ?
Output: 85.8

Input: Could you tell me which viability is on file for CC(C)CCNC(=O)NC(=O)CSc1nnc(-c2ccccc2F)n1N ?
Output: 98.1

Now let's try a different one.
Input: Could you tell me which viability is on file for CCOC(=O)C1=C(C)NC(=O)C(C#N)C1c1ccco1 (configuration not stated) ?
Output: 90

----------
# assay remarks: HUVEC growth inhibition – cell-based, human, primary screen (AID 575);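 also: 100% = median of untreated cell wells with 0.1% DMSO on each plate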
# applied conditions: HUVEC proliferation, CellTiter-Glo luminescence, 72 h; at 10 µM; stronger effect = lower value
observation type: viability (%)
Numeric answer only, unit % assumed.

Example cases with answers are listed next.
Input: Could you tell me which viability is on file for CCC(C)NC(=O)CSC1=Nc2ccccc2C2=NC(CC(=O)NCc3ccccc3)C(=O)N12 (stereo unspecified) ?
Output: 85.7

Input: Could you tell me which viability is on file for Cc1cc(C)c(NC2=NCC(=O)N2C2CCCCC2)c(C)c1 ?
Output: 107

Input: Could you tell me which viability is on file for Cc1cc(C(=O)COc2cccc3cccnc23)c(C)n1C ?
Output: 80.9

Input: Could you tell me which viability is on file for C[C@H](CCC(=O)O)[C@H]1CC[C@H]2[C@@H]3C(=O)C[C@@H]4CC(=O)CC[C@]4(C)[C@H]3CC(=O)[C@]12C ?
Output: 88.9

Input: Could you tell me which viability is on file for O=C(NC1CCS(=O)(=O)C1)OC1CCCCC1 (stereo unspecified) ?
Output: 111

Now let's try a different one.
Input: Could you tell me which viability is on file for CCOC(=O)N1CCN(CCC(=O)c2ccc(Cl)cc2)CC1 ?
Output: 86.4

----------
# assay remarks: HUVEC growth inhibition – cell-based, human, primary screen (AID 575);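 also: 100% = median of untreated cell wells with 0.1% DMSO on each plate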
# applied conditions: HUVEC proliferation, CellTiter-Glo luminescence, 72 h; at 10 µM; stronger effect = lower value
The entries below come with measured viability values attached.
Numeric answer only, unit % assumed.

Input: Could you tell me which viability is on file for CCCn1nnc(NCc2ccc(OCc3cccs3)c(OC)c2)n1 ?
Output: 106

Input: Could you tell me which viability is on file for CCOC(=O)c1sc2nc3c(cc2c1N)COC(C)(C)C3 ?
Output: 111

Input: Could you tell me which viability is on file for CCOC(=O)CSc1nnc(-c2ccc(Cl)cc2Cl)o1 ?
Output: 105

Input: Could you tell me which viability is on file for Cc1nc(SCC(=O)CC(=O)OC(C)C)c(C#N)c(C)c1C ?
Output: 99.8

----------
# assay remarks: reversal of MRP1-mediated doxorubicin resistance, pilot screen, H69AR cells, doxorubicin co-treatment (AID 601)
# applied conditions: H69AR cells + 2 uM doxorubicin, CellTiter-Glo, 72 h; at 10 µM; stronger effect = higher value
The entries below come with measured differential viability (reversal) values attached.
Numeric answer only, unit % assumed.

Input: Could you tell me which differential viability (reversal) is on file for O=C(Cn1nc(-c2ccc(Cl)cc2)ccc1=O)NCCCN1CCN(Cc2ccccc2)CC1 ?
Output: -3.28

Input: Could you tell me which differential viability (reversal) is on file for O=C1CNCc2[nH]c3ccccc3c2N1c1ccccc1 ?
Output: -1.22

Input: Could you tell me which differential viability (reversal) is on file for COc1ccc(Br)cc1-c1noc(-c2ccccc2)n1 ?
Output: -0.585

Input: Could you tell me which differential viability (reversal) is on file for Cc1ccc(S(=O)(=O)NCC(=O)OCC(=O)Nc2ncc(Cl)cc2Cl)cc1 ?
Output: -16.6

Next:
Input: Could you tell me which differential viability (reversal) is on file for Cn1c(=O)[nH]c(=O)c2c1nc(CN1CCN(c3cccc(Cl)c3)CC1)n2CCc1ccccc1 ?
Output: -1.32

----------
# assay remarks: reversal of MRP1-mediated doxorubicin resistance, pilot screen, H69AR cells, doxorubicin co-treatment (AID 601)
# applied conditions: H69AR cells + 2 uM doxorubicin, CellTiter-Glo, 72 h; measured here: viability with 2 uM doxorubicin; at 10 µM; stronger effect = lower value
observation type: viability (%)
Numeric answer only, unit % assumed.

Example cases with answers are listed next.
Input: Could you tell me which viability is on file for O=C(NCc1ccccn1)c1ccc2nc(-c3ccco3)c(-c3ccco3)nc2c1 ?
Output: 79.8

Input: Could you tell me which viability is on file for O=C(Nc1ccccc1C(=O)NCCCn1ccnc1)c1ccccc1 ?
Output: 87.6

Input: Could you tell me which viability is on file for O=C(NCc1cccnc1)c1cccc(C(F)(F)F)c1 ?
Output: 95.7

Next:
Input: Could you tell me which viability is on file for CCOc1ccc(CNc2ccc3c(c2)ncn3C)cc1 ?
Output: 89.5

Input: Could you tell me which viability is on file for COc1ccc(C2C(C(C)=O)=C(O)C(=O)N2C)c(OC)c1 (stereo unspecified) ?
Output: 91.7

Input: Could you tell me which viability is on file for Cc1ccc2nc(-c3ccc(S(=O)(=O)N4CCOCC4)cc3)cn2c1 ?
Output: 98.5

----------
# assay remarks: reversal of MRP1-mediated doxorubicin resistance, pilot screen, H69AR cells, doxorubicin co-treatment (AID 601)
# applied conditions: H69AR cells + 2 uM doxorubicin, CellTiter-Glo, 72 h; measured here: viability with 2 uM doxorubicin; at 10 µM; stronger effect = lower value
Simple rule here: viability less than 80% is Y, otherwise N.

Here are 5 molecules together with their reported answers.
Input: Quick check: does Cc1ccc2cc(C(c3nnnn3C3CCCC3)N3CCN(c4ccc(F)cc4)CC3)c(=O)[nH]c2c1 (stereo unspecified) have viability under 80%?
Output: Y

Input: Quick check: does Cn1c(NCc2cccc(Br)c2)nc2ccccc21 have viability under 80%?
Output: Y

Input: Quick check: does CC(C)n1c(=NC(=O)c2ccco2)c(C#N)cc2c(=O)n3ccccc3cc21 have viability under 80%?
Output: Y

Input: Quick check: does Cc1csc(OCc2ccc(C#N)cc2)n1 have viability under 80%?
Output: N

Input: Quick check: does CC(=O)Nc1ccc(NS(=O)(=O)c2ccc(Cl)c(C(=O)O)c2)cc1 have viability under 80%?
Output: N

Next:
Input: Quick check: does O=C(CCN1CCN(CCO)CC1)Nc1ccc(OCc2ccccc2)cc1 have viability under 80%?
Output: N

----------
# assay remarks: reversal of MRP1-mediated doxorubicin resistance, pilot screen, H69AR cells, doxorubicin co-treatment (AID 601)
# applied conditions: H69AR cells, CellTiter-Glo, 72 h; compound alone cytotoxicity; at 10 µM
observation type: viability (%)
Numeric answer only, unit % assumed.

Input: Could you tell me which viability is on file for CCOc1ccc(-c2nc(C#N)c(NCc3ccc4c(c3)OCO4)o2)cc1 ?
Output: 70.4

Input: Could you tell me which viability is on file for CC(=O)Nc1ccc(S(=O)(=O)N(CC(=O)O)Cc2ccccc2)cc1 ?
Output: 97.7

Input: Could you tell me which viability is on file for O=C1c2ccccc2-c2nc3ncnn3c(-c3ccccc3)c21 ?
Output: 102

Input: Could you tell me which viability is on file for Cc1cc(S(=O)(=O)N2CCN(c3ncccn3)CC2)ccc1-n1cnnn1 ?
Output: 97.1

Input: Could you tell me which viability is on file for CCOC(=O)c1cc2c(=O)n3cccc(C)c3nc2n(CCOC)c1=NC(=O)c1ccncc1 ?
Output: 82.6

Next:
Input: Could you tell me which viability is on file for COC(=O)c1ccccc1OCC(=O)NC1CCCCC1 ?
Output: 90.2

Input: Could you tell me which viability is on file for Fc1cccc(Nc2cc(-n3cccn3)ncn2)c1 ?
Output: 89.6

Input: Could you tell me which viability is on file for Cc1ccc(CSc2nc3c(c(=O)[nH]2)C(c2ccncc2)C2=C(CCCC2=O)N3)cc1 (stereo unspecified) ?
Output: 97.9

Input: Could you tell me which viability is on file for CCOc1ccc(C2/C(=C(/O)c3ccccc3)C(=O)C(=O)N2CCCN(C)C)cc1OC (stereo unspecified) ?
Output: 100

Input: Could you tell me which viability is on file for CCOC(=O)c1[nH]c(CSc2nnc(-c3ccc(OC)cc3)o2)c(C(=O)OCC)c1C ?
Output: 38

Input: Could you tell me which viability is on file for COc1ccc(N=C2C(=O)Nc3ccccc32)cc1 ?
Output: 75.4
